- Test system: Staphylococcus aureus
- protocol summary: Antimicrobial activity against Staphylococcus aureus after 18 to 20 hrs by micro broth dilution method
- Type: functional

compound: COc1cccc2c(=O)c(C(C)=O)c(SC)[nH]c12
test system: Staphylococcus aureus
value prefix: >
MIC, µM: 200
--
compound: CSc1[nH]c2c(F)ccc(C(F)(F)F)c2c(=O)c1C(C)=O
test system: Staphylococcus aureus
value prefix: =
MIC, µM: 0.8
--
compound: CSc1[nH]c2c(Cl)cc(C(F)(F)F)cc2c(=O)c1C(C)=O
test system: Staphylococcus aureus
value prefix: =
MIC, µM: 0.8
--
compound: CSc1[nH]c2cc(C(F)(F)F)ccc2c(=O)c1C(C)=O
test system: Staphylococcus aureus
value prefix: =
MIC, µM: 3.12
--
compound: CSc1[nH]c2cc(Br)ccc2c(=O)c1C(C)=O
test system: Staphylococcus aureus
value prefix: =
MIC, µM: 12.5
--
compound: CC(=O)c1c([S+](C)[O-])[nH]c2ccc(C(F)(F)F)cc2c1=O (centres undefined)
test system: Staphylococcus aureus
value prefix: =
MIC, µM: 12.5
--
compound: CSc1[nH]c2c(Cl)cccc2c(=O)c1C(C)=O
test system: Staphylococcus aureus
value prefix: >
MIC, µM: 200
--
compound: CSc1[nH]c2ccccc2c(=O)c1C(C)=O
test system: Staphylococcus aureus
value prefix: >
MIC, µM: 200
--
compound: COc1ccc(C(F)(F)F)c2c(=O)c(C(C)=O)c(SC)[nH]c12
test system: Staphylococcus aureus
value prefix: >
MIC, µM: 200
--
compound: CCSc1[nH]c2ccc(C(F)(F)F)cc2c(=O)c1C(C)=O
test system: Staphylococcus aureus
value prefix: =
MIC, µM: 6.25
--
compound: CSc1[nH]c2ccc(OC(F)(F)F)cc2c(=O)c1C(C)=O
test system: Staphylococcus aureus
value prefix: =
MIC, µM: 3.12
--
compound: CSc1[nH]c2c(C)cccc2c(=O)c1C(C)=O
test system: Staphylococcus aureus
value prefix: >
MIC, µM: 200
--
compound: CC(=O)c1c(O)[nH]c2ccc(C(F)(F)F)cc2c1=O
test system: Staphylococcus aureus
value prefix: >
MIC, µM: 200
--
compound: CSc1[nH]c2c(Br)cccc2c(=O)c1C(C)=O
test system: Staphylococcus aureus
value prefix: =
MIC, µM: 6.25
--
compound: CSc1[nH]c2c(Cl)ccc(C(F)(F)F)c2c(=O)c1C(C)=O
test system: Staphylococcus aureus
value prefix: =
MIC, µM: 0.8
--
compound: CSc1[nH]c2cc(C(F)(F)F)c(C#N)cc2c(=O)c1C(C)=O
test system: Staphylococcus aureus
value prefix: =
MIC, µM: 0.8
--
compound: CSc1[nH]c2ccc(C(F)(F)F)cc2c(=O)c1C(C)=O
test system: Staphylococcus aureus
value prefix: =
MIC, µM: 6.25
--
compound: CSc1[nH]c2ccc(Br)cc2c(=O)c1C(C)=O
test system: Staphylococcus aureus
value prefix: =
MIC, µM: 25
--
compound: CN(C)[C@@H]1C(O)=C(C(N)=O)C(=O)[C@@]2(O)C(O)=C3C(=O)c4c(O)cccc4[C@@](C)(O)[C@H]3C[C@@H]12
test system: Staphylococcus aureus
value prefix: =
MIC, µM: 0.0325
--
compound: CC1COc2c(N3CCN(C)CC3)c(F)cc3c(=O)c(C(=O)O)cn1c23 (centres undefined)
test system: Staphylococcus aureus
value prefix: =
MIC, µM: 0.125
--
compound: CSc1[nH]c2c(C(F)(F)F)ccc(C(F)(F)F)c2c(=O)c1C(C)=O
test system: Staphylococcus aureus
value prefix: =
MIC, µM: 0.8
--
compound: COc1ccc2[nH]c(SC)c(C(C)=O)c(=O)c2c1
test system: Staphylococcus aureus
value prefix: >
MIC, µM: 200
--
compound: CSc1[nH]c2ccc(C)cc2c(=O)c1C(C)=O
test system: Staphylococcus aureus
value prefix: >
MIC, µM: 200
--
compound: CSc1[nH]c2c(Cl)cc([N+](=O)[O-])cc2c(=O)c1C(C)=O
test system: Staphylococcus aureus
value prefix: =
MIC, µM: 12.5

Data origin, for the record: ChEMBL document CHEMBL4152270
